- Tested on: PPARg DBDmut IVT, anti-PPARg (DBD mutation: PPARg1 K132A/R137A, NR concentration 270 nM)
- measurementProtocol: PBM binding z-score (relative to random genomic background probes); higher = stronger binding; sequences stand for … in GC…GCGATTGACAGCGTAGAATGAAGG

| seqString | PBM binding z-score |
| --- | --- |
| ATCGAAAGGTCGTGAGGTGAATATACAGAAAGGC | 0.704 |
| CTCGAAAGGTCGTGCTCAGGTGATTATACCAAAC | 0.403 |
| TCTTGTAGATCAAGCAGTTTAAGAAAGCCTGAGT | -0.105 |
| CCTAACGGGTCACGAGGTTATAGCACGACGAGCG | 0.866 |
| TTACCAAGGTGAGCTGAGGTCGGTGATCCAACTC | -0.369 |
| ATATGTAGGTTATCGAGTCATTCAGTTTGCGCAT | 2.73 |
| GCAACGAGGGCATTCGAGTTGATAGCATGGCGAT | -0.39 |
| CGTCCAAGGTAAAAGGTCAGTGAAGAGATGACGG | 0.215 |
| CGTCCAAGGTCAAAGGTAAGTGAAGAGATGACGG | -0.194 |
| GCTGCTAGGTCAGGTTGGACAGCTAACGGGTACG | -0.812 |
| CCTCGGAGGATAACAGGAGGTCAGAGCTGCCAGA | -1.92 |
| GCTTGTAGATCAATGTTAAGAAAGACTAAGCTAA | 0.113 |
| CCTGCAAGGTCATGGTCAGCTAATCTACAGTATG | 1.64 |
| TAGACTAGGTCATTCAGGGGCCAGTATAGAAAGC | 2 |
| AGAATGAGGTTAAGATCAGAGAAACAGAATACAT | 1.04 |
| GCTATTAGTTGAAAGGGCAACGGAATGATTCTCG | 0.361 |
| CGTCCAAGATCAGAGAGGTCAGTGAATGCCGAGT | -0.769 |
| CCTCGGAAGACAACAGGAGGTCAGAGCTGCCAGA | -1.87 |
| GGATCGAGGGCATTCGAGTTGATAGCATGGCGAT | -0.843 |
| ATATGTAGGTTACACCCGGGTCATTCAGGCTATG | 1.68 |
| TAGCCTAGGTCATTCAGGGGCCAGTGTAGAAAGC | -0.141 |
| TAGCCTAGGCCATGCGGGCCAGTATAGTGTCGGC | -1.38 |
| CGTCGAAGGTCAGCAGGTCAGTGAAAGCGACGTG | -1.4 |
| CCTACTGGGCCAAGATCATTGATCAGTCAAAGCA | -0.518 |
| CCTACTGGGACATTCAGAGGTCATTGATCATATG | 0.697 |
| TCTTGGAGGACACGAAAGGTCAGAGCTCGACATC | 0.521 |
| GCGAGTGGGGCAAAGCAGGTTACCATAAGGTTGG | -0.658 |
| CCTCGGAGGACAGAAGGTCAGAGTTGTCCGCTTT | -1.42 |
| CCGACTGGGGCATAAGATTACCATAAGCCAGCCC | -1.17 |
| TCAGACAGGTGATGGTAACTCAGGTACGCAGTCG | -0.349 |
| GTACCAACGTGAATAGGTCGTTGATGAGTAGGCG | -0.461 |
| TCTGCTAGGTCAGTTGGTCGGCTAACGAGCTGCC | 0.245 |
| TCTAGCGGGCCAGAGGGTCACTCAAGAGGTACGG | -1.59 |
| CAAACTCGGTCAAGAGGTCAAAGTCCGCTTCCCG | 1.86 |
| ATCTCTAGGTAACAAGTTCCGTGAAAGAGAGGAC | 1.32 |
| TAGCCTAGGTCATGGGCTAGTATACCACGCGAAC | -0.926 |
| GGAACGAGGACAAAGTTGATAGCATCTGTCGACG | -0.95 |
| AATACAGGGTCATCGTAGGCCAAAGTACGCACAG | 2.62 |
| CGTCCAAGGTCAATGCTAGGTCAGTTAAAGCATT | 0.055 |
| GCGACCGGGGCATCAGCAGGTTACCATAACTTAA | -1.19 |
| AGTCAAAGTTCACTAGGTAAAGTAAGATTCAGCT | 1.74 |
| TCAGATAGGTGAAGGTAACTCAGGTACGCAGTCG | -0.0331 |
| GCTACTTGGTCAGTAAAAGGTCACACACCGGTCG | 1.24 |
| GCTAGCAGGCCATTTGGGTCACCCAATGACGGGC | -0.885 |
| AATACAGGGTCACTAGGCAAGAGTAGGTACGAAT | 0.858 |
| CTCGAAAGGTCGGTTGAGGGGAGTATACGGATAA | 0.356 |
| ATATGTAGGTTAAGGGCCATTCAGGTTGGTTCGC | 2.4 |
| TCTGCTAGGTCAGTCGGTCAGCTAACGAGCTGCC | -0.109 |
| ATATGTAGGTTACCTCCGGGTCATTCAGGCTATG | 1.41 |
| GCTGCTAGGTCAGGTTGGTCAGTTAACGGGTACG | -0.445 |
| TCATGTAGATCAATAGAGGTTAAGAAAGTGCGCT | 0.436 |
